These measurements were taken from patent US11453695B2.

The entries below are paired with their reported inhibition at 20 µM.
- Test system: A549 (lung carcinoma) cell line
- PROTOCOL: Cell viability assay (Cell Titer Glo), growth inhibition
- Assay type: cell-based
- RUN PARAMETERS: Homo sapiens, 96 hours of incubation

- COMPOUND: "CC(C)OC(=O)[C@H](C)NP(=O)(OC[C@H]1O[C@@H](n2cnc3c(N)ncnc32)C(F)(F)C1(C)COP(=O)(N[C@@H](C)C(=O)OC(C)C)Oc1ccccc1)Oc1ccccc1 (some centres unmarked) [LCB2092]"
  inhibition at 20 µM / %: 25
- COMPOUND: "CC(C)OC(=O)[C@H](C)NP(=O)(OC[C@H]1O[C@@H](n2cnc3c(N)nc(Cl)nc32)[C@H](F)C1(C)COP(=O)(N[C@@H](C)C(=O)OC(C)C)Oc1ccccc1)Oc1ccccc1 (some centres unmarked) [LCB2080]"
  inhibition at 20 µM / %: 34
- COMPOUND: "COc1nc(Cl)nc2c1ncn2[C@@H]1O[C@H](COP(=O)(N[C@@H](C)C(=O)OC(C)C)Oc2ccccc2)C(C)(COP(=O)(N[C@@H](C)C(=O)OC(C)C)Oc2ccccc2)[C@H]1F (some centres unmarked) [LCB2079]"
  inhibition at 20 µM / %: 70
- COMPOUND: "CC(C)OC(=O)[C@H](C)NP(=O)(OC[C@H]1O[C@@H](n2cnc3c(NCc4ccccc4)ncnc32)C(F)(F)C1(C)COP(=O)(N[C@@H](C)C(=O)OC(C)C)Oc1ccccc1)Oc1ccccc1 (some centres unmarked) [LCB2095]"
  inhibition at 20 µM / %: 3
- COMPOUND: "CC(C)OC(=O)[C@H](C)NP(=O)(OC[C@H]1O[C@@H](n2cnc3c(N)ncnc32)C(F)(F)C1(C)CO)Oc1ccccc1 (some centres unmarked) [LCB2093]"
  inhibition at 20 µM / %: 0
